Assay: AUC (0 to 72 hrs) in rat at 40 mg/kg,iv for 3 months
Format: ADME, organism-based
Parameters: time 3 months, dose 40 mg/kg, route iv
Conditions: in vivo
Numbered stars: 1 amine (or outer) side, 2 acyl side, 3 side chain; on linkers, the order of the positions; unused ones are H or OH. Square brackets hold non-standard residues; d marks the D form. Peptide text beside a SMILES is read from it. * marks the point of attachment. X1 = N#Cc1cnc2ccc(-c3c(-c4ccc(F)c(Cl)c4)ncn3CCOCN*)nn12; C18 diacid = O=C(O)CCCCCCCCCCCCCCCCC(=O)*; γGlu = O=C(O)[C@H](CCC(=O)[*:2])N[*:1]; PABC = O=C(OCc1ccc(N[*:1])cc1)[*:2]; AEEA = NCCOCCOCC(=O)O
Parameter measured: AUC(0-t) at 2190 h (µM·h)
Please state the figure in µM·h; there is no need to write the unit.

Incoming: Given CC(C)C[C@H](NC(=O)COCCOCCNC(=O)COCCOCCNC(=O)CC[C@H](NC(=O)CC[C@H](NC(=O)CCCCCCCCCCCCCCCCC(=O)O)C(=O)O)C(=O)O)C(=O)N[C@@H](CO)C(=O)NCC(=O)N[C@@H](CCCCN)C(=O)Nc1ccc(COC(=O)NCOCCn2cnc(-c3ccc(F)c(Cl)c3)c2-c2ccc3ncc(C#N)n3n2)cc1 ({C18 diacid-γGlu-γGlu-AEEA-AEEA}-LSGK[PABC]-X1) , state its recorded AUC(0-t) at 2190 h.
Outgoing: 81
